The origin of these recorded values is patent US8778896B2.

Tested on: streptococcus pneumoniae (112)
Assay: Clinical isolates, agar double dilution method
Type: cell-based
Details: 112 clinical isolates of streptococcus pneumoniae; read-out: MIC50
# MIC50 listing for each entry below
All answers are understood in µg/mL, so give the number only.

Example compounds with recorded MIC50:
CCC(=O)OC1CC(=O)OC(C)C/C=C/C=C/C(OC2CCC(N(C)C)C(C)O2)C(C)CC(CC=O)C(OC2OC(C)C(OC3CC(C)(O)C(OC(=O)CC(C)C)C(C)O3)C(N(C)C)C2O)C1OC (centres unmarked)    0.12
COC1C(OC(C)=O)CC(=O)OC(C)C/C=C/C=C/C(OC2CCC(N(C)C)C(C)O2)C(C)CC(CC=O)C1OC1OC(C)C(OC2CC(C)(O)C(OC(=O)CC(C)C)C(C)O2)C(N(C)C)C1O (centres unmarked)    0.12
CC[C@H]1OC(=O)[C@H](C)[C@@H](O[C@H]2C[C@@](C)(OC)[C@@H](O)[C@H](C)O2)[C@H](C)[C@@H](O[C@@H]2O[C@H](C)C[C@H](N(C)C)[C@H]2O)[C@](C)(O)C[C@@H](C)CN(C)[C@H](C)[C@@H](O)[C@]1(C)O [azithromycin, reference compound]    0.25
CC[C@H]1OC(=O)[C@H](C)[C@@H](O[C@H]2C[C@@](C)(OC)[C@@H](O)[C@H](C)O2)[C@H](C)[C@@H](O[C@@H]2O[C@H](C)C[C@H](N(C)C)[C@H]2O)[C@](C)(O)C[C@@H](C)C(=O)[C@H](C)[C@@H](O)[C@]1(C)O [erythrocin, reference compound]    0.25

Give the measured MIC50 of COC1C(O)CC(=O)OC(C)C/C=C/C=C/C(OC2CCC(N(C)C)C(C)O2)C(C)CC(CC=O)C1OC1OC(C)C(OC2CC(C)(O)C(OC(=O)CC(C)C)C(C)O2)C(N(C)C)C1O (centres unmarked) .
0.12

###

# adverse reaction listing for each entry below
System: adult acute respiratory infections caused by sensitive bacteria
Experiment: Clinical test versus Azithromycin, multi-center random double blind
Type: in vivo
Conditions: patients 18 to 65 years
All answers are understood in %, so give the number only.

CC[C@H]1OC(=O)[C@H](C)[C@@H](O[C@H]2C[C@@](C)(OC)[C@@H](O)[C@H](C)O2)[C@H](C)[C@@H](O[C@@H]2O[C@H](C)C[C@H](N(C)C)[C@H]2O)[C@](C)(O)C[C@@H](C)CN(C)[C@H](C)[C@@H](O)[C@]1(C)O [azithromycin, reference compound]    7.6
COC1C(OC(C)=O)CC(=O)OC(C)C/C=C/C=C/C(OC2CCC(N(C)C)C(C)O2)C(C)CC(CC=O)C1OC1OC(C)C(OC2CC(C)(O)C(OC(=O)CC(C)C)C(C)O2)C(N(C)C)C1O (stereo not shown)    2.5
CCC(=O)OC1CC(=O)OC(C)C/C=C/C=C/C(OC2CCC(N(C)C)C(C)O2)C(C)CC(CC=O)C(OC2OC(C)C(OC3CC(C)(O)C(OC(=O)CC(C)C)C(C)O3)C(N(C)C)C2O)C1OC (stereo not shown)    2.5

Here's the next entry for you.
Give the measured adverse reaction of COC1C(O)CC(=O)OC(C)C/C=C/C=C/C(OC2CCC(N(C)C)C(C)O2)C(C)CC(CC=O)C1OC1OC(C)C(OC2CC(C)(O)C(OC(=O)CC(C)C)C(C)O2)C(N(C)C)C1O (stereo not shown) .
2.5
